# System: Neuronal cortical cells
# Assay remarks: Assay for test compound cytoxicity, MTS (Assay 3(d))
# Assay type: cell-based, mouse
# Details: BL6J×129sv, mouse, 4 days, 1 uM
Endpoint: Test Compound Cytoxicity 1 uM
Answers are plain numbers.

Guide cases for Test Compound Cytoxicity 1 uM, answers given:
O/N=C/c1ccc2cccc(O)c2n1
92
CN(c1ccccn1)c1ccc2c(Cl)cc(Cl)c(O)c2n1
96.44
O/N=C/c1ccc2c(Cl)cc(Cl)c(O)c2n1
85

Dear reader, for each entry below, please note its Test Compound Cytoxicity 1 uM.
1. Oc1c(Cl)cc(Cl)c2cc(Cl)cnc12 [compound 1058, 3,5,7-trichloro-8-hydroxyquinoline]
2. Oc1c(Cl)cc(Cl)c2ccc(-c3ccccn3)nc12
3. CN(c1ccc2cccc(O)c2n1)c1ccc2cccc(O)c2n1
4. O=C(CNC(=O)c1cc(O)c2cccc(O)c2n1)NCCc1c[nH]cn1
5. COc1cccc(-c2cc(Cl)c3cccnc3c2O)c1
6. CO/N=C/c1ccc2c(Cl)cc(Cl)c(O)c2n1
7. Cc1cccc(-c2ccc3cccc(O)c3n2)n1
8. Oc1c(-c2ccccc2C(F)(F)F)cc(Cl)c2cccnc12

[82.47, 63, 74, 90, 85, 83, 90, 88]

Dear reader, for each entry below, please note its Test Compound Cytoxicity 1 uM.
1. Oc1c(Cl)cc(Cl)c2cccnc12
2. CCNCc1ccc2c(Cl)cc(Cl)c(O)c2n1.Cl
3. CCCCN(c1ccc2cccc(O)c2n1)c1ccc2cccc(O)c2n1

[92, 87, 95]

* * *

# System: Neuronal cortical cells treated with Aβ1-42
# Assay remarks: Assay for Aβ neurotoxicity and Aβ neuroprotection (Assay 3(c))
# Format: cell-based, mouse
# Details: 20 uM Aβ1-42, 4 days, MTS
Endpoint: % inhibition Abeta toxicity
Write the numeric value and follow it with the unit.

Oc1c(Cl)cc(Cl)c2cc(Cl)cnc12 [compound 1058, 3,5,7-trichloro-8-hydroxyquinoline]
30%
Oc1c(-c2ccccc2C(F)(F)F)cc(Cl)c2cccnc12
13%

Dear reader, for each entry below, please note its % inhibition Abeta toxicity.
1. Oc1cccc2ccc(CN(CCc3c[nH]cn3)Cc3c[nH]cn3)nc12
2. Nc1ccccc1NC(=O)c1cc(O)c2cccc(O)c2n1
3. NCc1ccc2cccc(O)c2n1
4. Cc1cc(C)c2cccnc2c1O

9%
7%
6%
22%

Please list % inhibition Abeta toxicity recorded for the molecule CN(CCc1ccccn1)Cc1ccc2cccc(O)c2n1 18%

* * *

# Test system: Neuronal cortical cells treated with Aβ1-42
# Assay remarks: Assay for Aβ neurotoxicity and Aβ neuroprotection (Assay 3(c))
# Format: cell-based, mouse
# Details: 20 uM Aβ1-42, 4 days, MTS
Endpoint: % inhibition Abeta toxicity (%)
Numbers only, in %.

Dear reader, for each entry below, please note its % inhibition Abeta toxicity.
1. O=C(Nc1nccs1)c1ccc2cccc(O)c2n1
2. O=C(c1ccc2cccc(O)c2n1)N(Cc1ccccn1)Cc1ccccn1
3. CN(c1ccc2cccc(O)c2n1)c1ccc2cccc(O)c2n1
4. O=C(CNC(=O)c1cc(O)c2cccc(O)c2n1)NCCc1c[nH]cn1
5. O/N=C/c1ccc2c(Cl)cc(Cl)c(O)c2n1
6. Oc1c(Cl)cc(-c2cccnc2)c2cccnc12

1. 13
2. 4
3. 17
4. 5
5. 8
6. 4

* * *

# System: Neuronal cortical cells
# Assay remarks: Assay for test compound cytoxicity, MTS (Assay 3(d))
# Format: cell-based, mouse
# Details: BL6J×129sv, mouse, 4 days, 1 uM
Label rule met when Test Compound Cytoxicity 1 uM is strictly below 90; otherwise label rule not met.

I wonder whether O=C(NCCc1c[nH]cn1)c1ccc2cccc(O)c2n1 has Test Compound Cytoxicity 1 uM below 90. Can you tell? rule met

I wonder whether Cn1cnc(CCNC(=O)c2ccc3c(Cl)cc(Cl)c(O)c3n2)c1 has Test Compound Cytoxicity 1 uM below 90. Can you tell? rule not met

I wonder whether Oc1cccc2ccc(CN(CCc3c[nH]cn3)Cc3ccccn3)nc12 has Test Compound Cytoxicity 1 uM below 90. Can you tell? rule not met

I wonder whether Oc1c(Br)cc(-c2cc(F)cc(F)c2)c2cccnc12 has Test Compound Cytoxicity 1 uM below 90. Can you tell? rule met

* * *

# Test system: Neuronal cortical cells
# Assay remarks: Assay for test compound cytoxicity, MTS (Assay 3(d))
# Format: cell-based, mouse
# Details: BL6J×129sv, mouse, 4 days, 1 uM
Endpoint: Test Compound Cytoxicity 1 uM
Answers are plain numbers.

CN(CCc1ccccn1)Cc1ccc2cccc(O)c2n1 [compound 990]
88
O=C(Nc1nccs1)c1ccc2cccc(O)c2n1 [compound 952]
91
O=C(c1ccc2cccc(O)c2n1)N(Cc1ccccn1)Cc1ccccn1 [compound 1020]
85
Oc1cccc2ccc(CN(Cc3ccccn3)Cc3ccccn3)nc12 [compound 1010]
88
Oc1ccc(/C=C/c2ccc3cccc(O)c3n2)cc1 [compound 89]
92
CC(=O)NC(=O)c1ccc2cccc(O)c2n1 [compound 1021]
93
O=S(=O)(O)c1ccc(O)c2ncccc12 [compound 41]
100
Oc1cccc2ccc(CN(Cc3ccccn3)Cc3nccs3)nc12 [compound 1003]
97
O=C(O)c1ccc2c(Cl)cc(Cl)c(O)c2n1 [compound 1039]
94
Oc1cccc2ccc(CN(CCc3c[nH]cn3)Cc3nccs3)nc12 [compound 1002]
82

Dear reader, for each entry below, please note its Test Compound Cytoxicity 1 uM.
1. O=C(NCCc1ccccn1)c1ccc2cccc(O)c2n1 [compound 950]
2. Oc1c(I)cc(Cl)c2cccnc12 [compound 1, clioquinol, reference compound]

1: 88; 2: 90
